Assignment: determine reported SPOT intensity for the given binders.
Measured on: T1, Boi1, P38041
T1 sequence (P38041 1-86, looked up): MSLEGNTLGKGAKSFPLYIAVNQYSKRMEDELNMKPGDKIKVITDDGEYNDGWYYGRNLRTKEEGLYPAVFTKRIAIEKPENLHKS
Assay comment: SPOT array
Test conditions: median of control spots 1162
Numbers only.

Solved cases below.
{"columns": ["Binder", "SPOT intensity"],
 "data": [
  ["HVRRSILALPLGVLL", 3],
  ["DLPLPDLPPEPPTEL", 2],
  ["VPPPMQPPPIESSNL", 1]
]}

Give SPOT intensity for each of the items listed below.
1. AVPPPPPPPPLPESL
2. DTFLPPPPPPPSNFE
3. IKKRNKIRLPSGSPE
4. VDFTLPPPPPPPGLD

1. 0
2. 1
3. 5
4. 2

Below are 2 binders. Give each one its SPOT intensity.
1. PPIPIVPSSPAPPLP
2. MSPLGAPPPPPHKDH

1. 0
2. 0
